# ASSAY SYSTEM: CCR2 (Homo sapiens)
# Sequence (P41597 1-360 isoform P41597-2): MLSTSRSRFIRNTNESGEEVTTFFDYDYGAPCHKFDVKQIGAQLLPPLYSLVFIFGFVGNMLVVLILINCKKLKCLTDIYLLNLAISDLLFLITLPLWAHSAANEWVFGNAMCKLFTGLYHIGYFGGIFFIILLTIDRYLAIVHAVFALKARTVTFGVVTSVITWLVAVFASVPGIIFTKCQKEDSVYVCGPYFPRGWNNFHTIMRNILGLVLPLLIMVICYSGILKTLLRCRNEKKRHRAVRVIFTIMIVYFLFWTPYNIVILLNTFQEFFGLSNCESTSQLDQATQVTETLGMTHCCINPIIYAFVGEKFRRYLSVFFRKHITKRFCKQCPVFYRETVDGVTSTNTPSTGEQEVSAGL
# TEST METHOD NOTES: MCP-1 Receptor Binding Assay in THP-1 Cells
# STUDY CONDITIONS: THP-1 cells, 0.5 nM 125I labeled MCP-1, 2 hours at 30° C.; read-out: Inhibition of MCP-1 Binding IC50
REPORTED PROPERTY: IC50 (nM)

>  <COMPOUND>
O=C(C(=O)N1CCC(c2ccc(Cl)cc2)CC1)C1CCN(C(=O)C=Cc2ccc(Cl)c(Cl)c2)CC1 [Compound 2]

>  <EXPERIMENTAL VALUE>
4400

$$$$
>  <COMPOUND>
COc1ccc(C2CCN(CC(O)C3CCN(C(=O)/C=C/c4ccc(F)c(F)c4)CC3)CC2)cc1 (centres unmarked) [Compound 32]

>  <EXPERIMENTAL VALUE>
70

$$$$
>  <COMPOUND>
O=C(Nc1ccc(Cl)c(Cl)c1)N1CCC(O)(C(O)CN2CCC(c3c[nH]c4ccc(F)cc34)CC2)CC1 (centres unmarked) [Compound 167]

>  <EXPERIMENTAL VALUE>
460

$$$$

[A] COc1ccc(C2CCN(CC(O)C3(O)CCN(C(=O)Nc4ccc(Cl)c(Cl)c4)CC3)CC2)cc1 (centres unmarked) [Compound 116]
[B] O=C(CCc1ccc(Cl)cc1)N1CCC(O)(C(O)CN2CCC(c3c[nH]c4ccc(F)cc34)CC2)CC1 (centres unmarked) [Compound 160]
[C] COc1ccc(C2CCN(CC(O)C3CCN(C(=S)Nc4ccc(Br)c(F)c4)CC3)CC2)cc1 (centres unmarked) [Compound 110]
[D] O=C(Nc1cc(F)cc(C(F)(F)F)c1)N1CCC(O)(C(O)CN2CCC(c3c[nH]c4ccc(N5CCOCC5)cc34)CC2)CC1 (centres unmarked) [Compound 180]
[E] O=C(/C=C/c1cc(F)cc(F)c1)N1CCC(O)(C(O)CN2CCC(c3c[nH]c4ccc(N5CCOCC5)cc34)CC2)CC1 (centres unmarked) [Compound 149]
Query: Your job: order these 5 records by IC50, ascending. Note for the reader: the ranking is given by listing the labels in the order requested.
Response: C, A, B, E, D
